Test system: THP-1 viability, CellTiter-Glo luminescence, 72 h
Test: PubChem AID 2252
MEASURED_PROPERTY: EC50

CCCCCCCCCC[N+](C)(C)CC/C=C1/c2ccccc2Sc2ccc(Cl)cc21 | 1.99 µM

(Q) What value of measured EC50 is listed for `Nc1nc(F)nc2c1ncn2[C@@H]1O[C@H](CO)[C@@H](O)[C@H]1O` ?
(A) 0.35 µM

(Q) Requested read-out: EC50. Entry: `C#CCOCCOCCOCCNc1nc(N2CCN(C(=O)CCCCCCCCCCNC(=O)[C@H](CCCCN)n3cc(C[C@@H](C)CC)nn3)CC2)nc(N2CCN(C(=O)CCCCCCCCCCNC(=O)[C@H](CCCN=C(N)N)n3cc(C[C@@H](C)CC)nn3)CC2)n1`
(A) 5.23 µM

(Q) // EC50 lookup, key: `Oc1cccc2ccc(Nc3ccccn3)nc12`
(A) 1.75 µM

(Q) Name the recorded EC50 for `CCCCCCCCCCOC(=O)Cn1c(COc2ccccc2C)[n+](C)c2ccccc21` .
(A) 1.29 µM

(Q) I have this compound here, COC(=O)CC1C(=O)NCCN1C(=O)CSc1nc2ccc([N+](=O)[O-])cc2s1 (configuration not stated) , and I need its recorded EC50.
(A) < 0.1 µM

----------
Test system: THP-1 viability, CellTiter-Glo luminescence, 72 h
Assay: PubChem AID 2252
pEC50: −log10 of the molar value.
MEASURED_PROPERTY: pEC50

O=C(O)c1csc(-c2ccc(Cl)cc2)n1 | > 7.00
Cc1ccc(C(=O)N/N=C\c2ccc([N+](=O)[O-])s2)cn1 | 4.88
CCN1CCN(CCCNC(=O)c2ccc(/C=C3/Sc4ccccc4N(Cc4ccccc4F)C3=O)cc2)CC1 | 4.95
O=C(CCN1CCOCC1)N/N=C/c1cc(Br)cc(Br)c1O | 4.61
Cc1ccc(S(=O)(=O)CCC(=O)c2ccc(O)cc2O)cc1 | 4.80

For the next question, use this compound.
(Q) What does the record list as pEC50 for `N=c1n(CC(=O)c2ccc(Br)s2)c2ccccc2n1Cc1ccccc1` ?
(A) 5.36

----------
System: THP-1 viability, CellTiter-Glo luminescence, 72 h
Test: PubChem AID 2252
pEC50: −log10 of the molar value.
# pEC50 per entry

Cc1ccc(-c2c[n+](Cc3ccc(Cl)cc3)c3n2CCC3)cc1 | 5.00
CCOc1ccc(-c2cc(C)[n+](CCN(CC)CC)c(-c3ccc(OCC)cc3)c2)cc1 | 5.36
CN(C)CCNc1oc(COc2ccc(-c3ccccc3)cc2)nc1C#N | 4.88
CCC(C)(c1ccc(C(=O)OC)s1)c1ccc(C(=O)OC)s1 | 4.30
O=C1C2=C(Nc3ccccc3SC2c2ccco2)c2ccccc21 (stereo not drawn) | 4.63
CC(=O)CC1OC(=O)C(Br)=C1NCc1ccccc1 (stereo not drawn) | 5.00
COc1ccccc1N1CCN(Cc2ccc(O)c3ncccc23)CC1 | 5.58
COC(=O)C(C)NC(=S)N1CCN(c2c(F)cc3c(=O)c(C(=O)O)cn(C4CC4)c3c2OC)CC1C (stereo not drawn) | 4.43
O=C(N/N=C/c1ccc([N+](=O)[O-])s1)C(O)c1ccccc1 (stereo not drawn) | 4.89
c1ccc(CN2CCN(c3ncnc4c3[nH]c3ccccc34)CC2)cc1 | 4.70

(Q) Any idea what pEC50 was measured for c1ccc(Nc2nc(NCC3CCCO3)c3ccccc3n2)cc1 (stereo not drawn) ?
(A) 5.42

(Q) // lookup pEC50 for `CN1CCN(c2ccc(NC(=O)c3ccc(-c4ccc(Br)cc4)o3)cc2)CC1`
(A) 5.11

(Q) Look up pEC50 for this molecule: Cc1cc2nc(C3CCN(CC4COc5ccccc5O4)CC3)[nH]c2cc1C (stereo not drawn)
(A) 4.57

(Q) Which measured pEC50 value corresponds to `O=C(N/N=C/c1ccc(O)c(O)c1)C1c2ccccc2Oc2ccccc21` ?
(A) 4.38

(Q) Give the measured pEC50 of `S=C(Nc1ccc(Cl)c(Cl)c1)NC1CCN(Cc2ccccc2)CC1` .
(A) 4.97

(Q) # get_value(readout='pEC50', item= `Cc1ccc(Nc2cc(C)c3c(O)cccc3n2)cc1C` )
(A) 4.62

(Q) // returns reported pEC50 for input `COc1cccc(/C=N/NC(=O)CSCC(=O)Nc2ccccc2)c1O`
(A) 5.28

(Q) Consider the molecule shown here: `O=[N+]([O-])c1ccc(/C=N/NC(=S)Nc2ccc(Cl)cc2Cl)s1` What is its recorded pEC50?
(A) 4.32

(Q) What does the record list as pEC50 for CC12CN3CC(C)(CN(C1)C3c1ccc(Br)cc1O)C2 (stereo not drawn) ?
(A) > 7.00

(Q) Entry `COc1ccc(N=CC2=C(Nc3ccc(OC)cc3)c3c(C)nn(-c4ccccn4)c3CC2)cc1` has what pEC50?
(A) 5.67

(Q) Dear colleague, I am looking for the recorded pEC50 of the following molecule: `Cc1cc(C)n(-c2nc(SCCN(C)C)c3c4c(sc3n2)CCCC4)n1`
(A) 5.49

(Q) What pEC50 value was documented for this molecule, `CN(C)CCCN1c2ccccc2Sc2ccccc21` ?
(A) 4.49

(Q) Dear colleague, I am looking for the recorded pEC50 of the following molecule: `O=C(N/N=C/c1ccc(O)cc1O)C(=O)N/N=C/c1ccc(O)cc1O`
(A) 4.92
